tested on: Plutella xylostella (Diamondback Moth); assay: Example B13: Plutella xylostella (Diamondback Moth), artificial diet, 96-well; assay type: in vivo; conditions: 216 h, application rate 500 ppm, eggs/L1 larvae, 9 days after infestation
Measured mortality at 500 ppm accompanies every entry in the list below.

Known results for compounds:
CC(NC(=O)c1cc(C2CC2)cc(C(F)(F)F)c1)c1ncnn1-c1ccc(C#N)cn1 (stereo not drawn)
≥ 80%
CC(NC(=O)c1cc(C(F)(F)F)cc(C(F)(F)C2CC2)c1)c1ncnn1-c1ncc(OC(F)F)cn1 (stereo not drawn)
≥ 80%

Now take the following compound into account.
## Task For the compound CC(NC(=O)c1cc(C(F)(F)F)nc(C2(C#N)CC2)c1)c1ncnn1-c1ccc(C#N)cn1 (stereo not drawn) , give its reported mortality at 500 ppm.
## Result ≥ 80%

---

# melting point per entry

## Task Respond only with melting point recorded for CC(NC(=O)c1cc(C(F)(F)F)cc(C2(C#N)CC2)c1)c1ncnn1-c1ccc(OCC(F)(F)F)cn1 (centres unmarked) [P34]
## Result 70 to 75 °C

## Task Read the entry CC(NC(=O)c1cc(C(F)(F)F)nc(C2(C#N)CC2)c1)c1ncnn1-c1ccc(OCC(F)(F)F)cn1 (centres unmarked) [P33] and write its reported melting point.
## Result 170 to 175 °C

## Task Look up and state reported melting point for CC(NC(=O)c1cc(C(F)(F)F)cc(S(=O)(=O)C(F)(F)F)c1)c1ncnn1-c1ccc(OCC(F)(F)F)cn1 (centres unmarked) [P32]
## Result 125 to 130 °C

## Task Name the recorded melting point of the compound listed here: CC(NC(=O)c1cc(C(F)(F)F)cc(C(F)(F)C2CC2)c1)c1ncnn1-c1ccc(OCC(F)F)cn1 (centres unmarked) [P36]
## Result 105 to 110 °C

## Task Give melting point for CC(NC(=O)c1cc(C(F)(F)F)cc(C(F)(F)C2CC2)c1)c1ncnn1-c1ccc(OCC(F)(F)F)cn1 (centres unmarked) [P35]
## Result 48 to 52 °C
